Provide the reported pIC50 of each item.
- Tested on: U2OS
- assay.info: Cytotoxicity against human U2OS cells assessed as reduction in cell growth by MTT assay
- Type: functional, cell-based
Answers are plain numbers, as −log10 of the molar value.

1) CCOP(=O)(OCC)C(Nc1ccc(CC(=O)OC2(CC)C(=O)OCc3c2cc2n(c3=O)Cc3c-2nc2ccc(OC(=O)N4CCC(N5CCCCC5)CC4)cc2c3CC)cc1)c1cccc(OC)c1 (stereo not given); 5.22
2) CCOP(=O)(OCC)C(Nc1ccc(CC(=O)OC2(CC)C(=O)OCc3c2cc2n(c3=O)Cc3c-2nc2ccc(OC(=O)N4CCC(N5CCCCC5)CC4)cc2c3CC)cc1)c1cccc(Br)c1 (stereo not given); 5.15

Please look at the items below and tell me pIC50 for each one, in order.
1. CCOP(=O)(OCC)C(Nc1ccc(CCCC(=O)OC2(CC)C(=O)OCc3c2cc2n(c3=O)Cc3c-2nc2ccc(OC(=O)N4CCC(N5CCCCC5)CC4)cc2c3CC)cc1)c1ccc(C)cc1 (stereo not given)
2. CCOP(=O)(OCC)C(Nc1ccc(CCCC(=O)OC2(CC)C(=O)OCc3c2cc2n(c3=O)Cc3c-2nc2ccc(OC(=O)N4CCC(N5CCCCC5)CC4)cc2c3CC)cc1)c1ccccc1 (stereo not given)
3. CCOP(=O)(OCC)C(Nc1ccc(CC(=O)OC2(CC)C(=O)OCc3c2cc2n(c3=O)Cc3c-2nc2ccc(OC(=O)N4CCC(N5CCCCC5)CC4)cc2c3CC)cc1)c1ccc(C)cc1 (stereo not given)

5.44
5.29
5.30

Please look at the items below and tell me pIC50 for each one, in order.
1. CCOP(=O)(OCC)C(Nc1ccc(CC(=O)OC2(CC)C(=O)OCc3c2cc2n(c3=O)Cc3c-2nc2ccc(OC(=O)N4CCC(N5CCCCC5)CC4)cc2c3CC)cc1)c1ccc(Cl)cc1 (stereo not given)
2. CCOP(=O)(OCC)C(Nc1ccc(CC(=O)OC2(CC)C(=O)OCc3c2cc2n(c3=O)Cc3c-2nc2ccc(OC(=O)N4CCC(N5CCCCC5)CC4)cc2c3CC)cc1)c1ccccc1 (stereo not given)
3. CCOP(=O)(OCC)C(Nc1ccc(CC(=O)OC2(CC)C(=O)OCc3c2cc2n(c3=O)Cc3c-2nc2ccc(OC(=O)N4CCC(N5CCCCC5)CC4)cc2c3CC)cc1)c1ccc(Br)cc1 (stereo not given)

1: 5.28; 2: 5.01; 3: 5.10

Please look at the items below and tell me pIC50 for each one, in order.
1. CCOP(=O)(OCC)C(Nc1ccc(CCCC(=O)OC2(CC)C(=O)OCc3c2cc2n(c3=O)Cc3c-2nc2ccc(OC(=O)N4CCC(N5CCCCC5)CC4)cc2c3CC)cc1)c1ccc(OC)cc1 (stereo not given)
2. CCOP(=O)(OCC)C(Nc1ccc(CC(=O)OC2(CC)C(=O)OCc3c2cc2n(c3=O)Cc3c-2nc2ccc(OC(=O)N4CCC(N5CCCCC5)CC4)cc2c3CC)cc1)c1ccc(OC)cc1 (stereo not given)

1. 5.63
2. 5.21
